# Target Of Assay: human CD3 (human, UniProt P07766 23-207; P04234 22-171)
# Sequence (P07766 23-207 limits assumed, chain 1 of 2): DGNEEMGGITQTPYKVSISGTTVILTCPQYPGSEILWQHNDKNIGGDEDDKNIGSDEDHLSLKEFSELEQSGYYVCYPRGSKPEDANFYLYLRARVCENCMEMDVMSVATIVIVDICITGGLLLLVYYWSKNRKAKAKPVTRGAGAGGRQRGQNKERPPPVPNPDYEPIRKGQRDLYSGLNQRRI
# Sequence (P04234 22-171 limits assumed, chain 2 of 2): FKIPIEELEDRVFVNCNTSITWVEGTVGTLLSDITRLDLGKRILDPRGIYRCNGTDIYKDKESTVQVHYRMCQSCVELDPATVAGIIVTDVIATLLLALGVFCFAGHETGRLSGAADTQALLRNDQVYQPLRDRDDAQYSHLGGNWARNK
# Experiment: cell-based or functional assay
# hPBMC Proliferation [M] (EC50, with anti-CD28) values compiled below
Please state the figure in M; there is no need to write the unit.

# example entries with known answers
INSERT INTO assay_data (binder, endpoint_result) VALUES
  ('BSSTEAP2/CD3-011 (bispecific antibody, V domains shown, also called BSSTEAP2/CD3-0011) VH 1: QVQLVESGGGVVQPGRSLGLSCAASGFTFSSYGMHWVRQAPGKGLEWVAVIWYDGSNKYYVDSVKGRFTISRDNSKNTLYLQMNSLRAEDTAVYYCAREGLRFLENYYYYYGMDVWGQGTTVTVSS VH 2: EVQLVQSGGGLVQPGRSLRLSCAASGFTFADYTMHWVRQTPGKGLEWVSGISWNSGSKDYADSVKGRFTISRDNAKNSLYLQMNSLRTEDTALYYCAKYGSGYGRYFFYAMDVWGQGTTVTVSS VL: EIVLTQSPGTLSLSPGERATLSCRASQSISSTYLAWYQQRPGQAPRLLIYGASSRATGIPDRFSGSGSGTDFTLTISRLEPEDFAVYYCQQYGTSPYTFGQGTKLEIK', '8.62e-12'),
  ('BSSTEAP2/CD3-007 (bispecific antibody, V domains shown) VH 1: QVQLQQSGPGLVKPSQTLSLTCAISGDSVSSNRAAWNWIRQSPSRGLQWLGRTYYRSKWYNDYAVSLRSRITINPVTSKNQVALHMNSVTPEDTAVYYCARAGIVVVPGPETFYYYDHGLDVWGQGTTVTVSS VH 2: EVQLVESGGGLVQPGRSLRLSCAASGFTFADYTMHWVRQAPGKGLEWVSDISWNSGSIAYADSVKGRFTISRDNAKNSLYLQMNSLRTEDTAFYYCAKDSRGYGHYKYLGLDVWGQGTTVTVSS VL: DIQMTQSPSSLSASVGDRVTITCRASQSIRSYLNWYQQKPGKAPELLIHAASSLQSGVPSRFSGSGSGTDFTLTISSLQPEDFASYYCQQSYSAPPITFGQGTRLEIK', '8.26e-11'),
  ('BSSTEAP2/CD3-005 (bispecific antibody, IgG4, V domains shown) VH 1: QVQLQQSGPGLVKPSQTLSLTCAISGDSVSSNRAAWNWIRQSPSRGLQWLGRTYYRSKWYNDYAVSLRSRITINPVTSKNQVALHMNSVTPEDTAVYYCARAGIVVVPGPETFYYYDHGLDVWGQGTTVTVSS VH 2: QVQLVESGGGLVHPGRSLRLSCAASGFKFDDYTMHWVRQAPGKGLEWVSDISWNSGSKGYADSVKGRFTISRDNAKDSLYLQMDSLRAADTAFYYCAKDKSGYGHFYYYAMDVWGQGTTVTVSS VL: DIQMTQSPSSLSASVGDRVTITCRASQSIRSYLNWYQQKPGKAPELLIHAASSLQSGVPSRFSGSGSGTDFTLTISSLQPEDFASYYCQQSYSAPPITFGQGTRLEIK', '2.76e-12'),
  ('BSSTEAP2/CD3-006 (bispecific antibody, V domains shown) VH 1: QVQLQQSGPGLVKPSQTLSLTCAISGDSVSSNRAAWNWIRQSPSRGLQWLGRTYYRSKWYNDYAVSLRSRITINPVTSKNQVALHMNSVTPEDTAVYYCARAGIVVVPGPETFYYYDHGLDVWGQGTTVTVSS VH 2: EVQLVESGGGLVQPGRSLRLSCVASGFTFDDYSMHWVRQAPGKGLEWVSGISWNSGSKDYADSVKGRFTISRDNAKNSLYLQMNSLRAEDTALYYCAKYGSGYGKFYHYGLDVWGQGTTVTVSS VL: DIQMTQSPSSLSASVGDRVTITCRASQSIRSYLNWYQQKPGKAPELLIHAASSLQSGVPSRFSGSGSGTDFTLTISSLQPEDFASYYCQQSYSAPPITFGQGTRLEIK', '8.14e-13'),
  ('BSSTEAP2/CD3-001 (bispecific antibody, IgG4, V domains shown) VH 1: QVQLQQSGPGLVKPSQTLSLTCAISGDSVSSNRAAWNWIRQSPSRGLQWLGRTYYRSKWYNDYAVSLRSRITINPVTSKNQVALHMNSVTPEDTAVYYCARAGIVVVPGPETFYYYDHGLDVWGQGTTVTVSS VH 2: EVQLVESGGGLVQPGRSLRLSCAASGFTFDDYSMHWVRQAPGKGLEWVSGISWNSGSKGYADSVKGRFTISRDNAKNSLYLQMNSLRAEDTALYYCAKYGSGYGKFYHYGLDVWGQGTTVTVSS VL: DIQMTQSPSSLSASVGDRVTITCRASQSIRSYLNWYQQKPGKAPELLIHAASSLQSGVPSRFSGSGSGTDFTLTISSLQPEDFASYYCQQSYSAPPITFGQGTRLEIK', '1.6e-10'),
  ('BSSTEAP2/CD3-009 (bispecific antibody, IgG4, V domains shown) VH 1: QVQLQQSGPGLVKPSQTLSLTCVISGDSVSTNSAAWNWIRQSPSRGLEWLGRTYYRSKWYNDYAVSVRSRITINPVTSKNQVALHLNSVTPEDTAVYYCARAGIVVVPGPETYYYYYHGLDVWGQGTTVTVSS VH 2: QVQLVESGGGLVHPGRSLRLSCAASGFKFDDYTMHWVRQAPGKGLEWVSDISWNSGSKGYADSVKGRFTISRDNAKDSLYLQMDSLRAADTAFYYCAKDKSGYGHFYYYAMDVWGQGTTVTVSS VL: DIQMTQSPSSLSASVGDRVTITCRASQNIRSYLNWYQQKPGKAPKLLIHVASSLQSGVPSRFSGSGSGTDFTLTISSLQPEDFATYYCQQSYSTPPITFGHGTRLEIK', '3.68e-13');

Lab note: next binder to report on.
Reported hPBMC Proliferation [M] (EC50, with anti-CD28) of BSSTEAP2/CD3-004 (bispecific antibody, IgG4, V domains shown) VH 1: QVQLVESGGGVVQPGRSLRLSCVASGFTISSYGMNWVRQAPGKGLEWVAVISYDGGNKYSVDSVKGRFTISRDNSKNTLYLQMNSLRAEDSAVYYCARGRYFDLWGRGTLVTVSS VH 2: EVQLVESGGGLVQPGRSLRLSCAASGFTFADYTMHWVRQGPGTGLEWVSDIGWSGGSLGYADSVKGRFTISRDNAKNSLYLEMNNLRPEDTALYYCVKDKSGYGKFQYGLDVWGQGTTVTVSS VL: DIQMTQSPSTLSASVGDRVTITCRASQSISSWLAWYQQKPGRAPNLLISKASSLKSGVPSRFSGSGSGTEFTLTVSSLQPDDFATYYCQQYYSYSYTFGQGTKLEIK : 7.1e-13
